// reported abundance fitness per item
B1: Transitional endoplasmic reticulum ATPase, residues 26 to 106; numbered along this chain, P55072 (parent)
chain: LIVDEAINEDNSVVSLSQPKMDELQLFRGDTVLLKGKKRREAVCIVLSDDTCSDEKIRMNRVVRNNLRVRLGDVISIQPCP

# Variants of: B1
# procedure-details: abundance fitness (aPCA) (normalised: wild type 0, dead -1); higher = more abundant; growth selection in yeast, the domain comes from the species named
# condition-notes: Homo sapiens

{"columns": ["mutation-annotation", "abundance fitness"],
 "data": [
  ["P79E", -0.087],
  ["T51Y", -0.277],
  ["S48R", -0.015],
  ["E23F", -0.263],
  ["S15V", 0.07],
  ["C52A", -0.253],
  ["R70G", 0.049],
  ["P79G", -0.083],
  ["M59E", -0.768],
  ["V46P", -0.439],
  ["D10R", -0.158]
]}
